Target: AsPC-1 HiBiT-KRASG12D (Homo sapiens, UniProt P01116, G12D)
Construct: insert the HiBiT tag onto the N-terminus of one or more of the endogenous KRAS alleles; endogenous in cells; host or cells: AsPC-1 (ATCC CRL-1682), CRISPR-Cas9 knock-in clone, one tagged allele
Sequence (P01116 1-188 isoform P01116-2 G12D): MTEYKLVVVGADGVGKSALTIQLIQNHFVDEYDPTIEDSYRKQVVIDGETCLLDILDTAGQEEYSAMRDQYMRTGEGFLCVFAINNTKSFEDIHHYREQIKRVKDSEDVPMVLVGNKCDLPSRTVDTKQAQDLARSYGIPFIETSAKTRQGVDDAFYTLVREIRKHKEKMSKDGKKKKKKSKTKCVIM
Assay: HiBiT degradation assay (G12D), AsPC-1 HiBiT-KRASG12D cells
Assay type: cell-based
Details: AsPC-1 HiBiT-KRASG12D cells, 24 hours treatment, HiBiT luminescence
DC50 reference

>  <ITEM SMILES>
CCc1cccc2cc(O)cc(-c3ncc4c(N5CC6CCC(C5)N6)nc(OC[C@@H]5CC[C@@H](COC(=O)N6CCN(c7cc([C@H](C(=O)N8C[C@H](O)C[C@H]8C(=O)N[C@@H](C)c8ccc(-c9scnc9C)cc8)C(C)C)on7)C[C@@H]6C)N5C)nc4c3F)c12

>  <VALUE>
< 600 nM

$$$$

Prompt line: Recorded DC50 for C#Cc1c(F)ccc2cc(O)cc(-c3ncc4c(N5CC6CCC(C5)N6)nc(OCCN5CCC(CN6CCN(c7cc([C@H](C(=O)N8C[C@H](O)C[C@H]8C(=O)N[C@@H](C)c8ccc(-c9scnc9C)cc8)C(C)C)on7)CC6)CC5)nc4c3F)c12 with AsPC-1 HiBiT-KRASG12D (Homo sapiens, UniProt P01116, G12D), please?
Response line: < 600 nM

Prompt line: Quick check: DC50 on AsPC-1 HiBiT-KRASG12D (Homo sapiens, UniProt P01116, G12D), item CCc1cccc2cc(O)cc(-c3ncc4c(N5CC6CCC(C5)N6)nc(OC[C@@]56CCCN5[C@H](COC(=O)N(C)Cc5cc([C@@H](C(=O)N7C[C@H](O)C[C@H]7C(=O)N[C@@H](C)c7ccc(-c8scnc8C)cc7)C(C)C)on5)CC6)nc4c3F)c12 ?
Response line: 1000 to 3000 nM

Prompt line: Return DC50 measured with AsPC-1 HiBiT-KRASG12D (Homo sapiens, UniProt P01116, G12D) given this compound: CCc1cccc2cc(O)cc(-c3ncc4c(N5CC6CCC(C5)N6)nc(OCCN5CCC(CN6CCN(c7cc([C@@H](C(=O)N8C[C@H](O)C[C@H]8C(=O)N[C@@H](C)c8ccc(-c9ccnn9C)cc8)C(C)C)on7)CC6)CC5)nc4c3F)c12
Response line: > 3000 nM
